Documented normalized RNA/DNA level with ligand (log10) across a set of variants
B1: library; a variant is named by its letters at N, in order (parent)
chain: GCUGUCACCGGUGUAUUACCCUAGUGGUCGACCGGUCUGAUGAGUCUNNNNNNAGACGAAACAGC

variants of: B1; experiment: normalized RNA/DNA level with ligand (relative to sTRSVctl = 100) (log10 (% of sTRSVctl)); ligand: hypoxanthine (xanthine aptamer); higher = less ribozyme self-cleavage, higher mRNA level; conditions: ligand concentration (+) RNA-Seq: 5 mM, HEK293T, reporter: mCherry (pCS4076), ligand present: yes
measurement-kind: normalized RNA/DNA level with ligand (log10)

sequence_chain="GCUGUCACCGGUGUAUUACCCUAGUGGUCGACCGGUCUGAUGAGUCUUGACCUAGACGAAACAGC [UGACCU]" recorded_result=2
sequence_chain="GCUGUCACCGGUGUAUUACCCUAGUGGUCGACCGGUCUGAUGAGUCUAUUUACAGACGAAACAGC [AUUUAC]" recorded_result=1.93
sequence_chain="GCUGUCACCGGUGUAUUACCCUAGUGGUCGACCGGUCUGAUGAGUCUGACCGUAGACGAAACAGC [GACCGU]" recorded_result=1.93
sequence_chain="GCUGUCACCGGUGUAUUACCCUAGUGGUCGACCGGUCUGAUGAGUCUGGCUAAAGACGAAACAGC [GGCUAA]" recorded_result=1.94
sequence_chain="GCUGUCACCGGUGUAUUACCCUAGUGGUCGACCGGUCUGAUGAGUCUCUUGUAAGACGAAACAGC [CUUGUA]" recorded_result=1.94
sequence_chain="GCUGUCACCGGUGUAUUACCCUAGUGGUCGACCGGUCUGAUGAGUCUGUGGCUAGACGAAACAGC [GUGGCU]" recorded_result=1.96
sequence_chain="GCUGUCACCGGUGUAUUACCCUAGUGGUCGACCGGUCUGAUGAGUCUUCACGAAGACGAAACAGC [UCACGA]" recorded_result=1.92
sequence_chain="GCUGUCACCGGUGUAUUACCCUAGUGGUCGACCGGUCUGAUGAGUCUCGGAGAAGACGAAACAGC [CGGAGA]" recorded_result=1.93
sequence_chain="GCUGUCACCGGUGUAUUACCCUAGUGGUCGACCGGUCUGAUGAGUCUCGGUGCAGACGAAACAGC [CGGUGC]" recorded_result=1.96
sequence_chain="GCUGUCACCGGUGUAUUACCCUAGUGGUCGACCGGUCUGAUGAGUCUCGCGCAAGACGAAACAGC [CGCGCA]" recorded_result=1.97
sequence_chain="GCUGUCACCGGUGUAUUACCCUAGUGGUCGACCGGUCUGAUGAGUCUUAUCAGAGACGAAACAGC [UAUCAG]" recorded_result=1.87
sequence_chain="GCUGUCACCGGUGUAUUACCCUAGUGGUCGACCGGUCUGAUGAGUCUUUCCGUAGACGAAACAGC [UUCCGU]" recorded_result=2
sequence_chain="GCUGUCACCGGUGUAUUACCCUAGUGGUCGACCGGUCUGAUGAGUCUUCGCGAAGACGAAACAGC [UCGCGA]" recorded_result=1.89
sequence_chain="GCUGUCACCGGUGUAUUACCCUAGUGGUCGACCGGUCUGAUGAGUCUUGUUAGAGACGAAACAGC [UGUUAG]" recorded_result=1.88
sequence_chain="GCUGUCACCGGUGUAUUACCCUAGUGGUCGACCGGUCUGAUGAGUCUGGUCCAAGACGAAACAGC [GGUCCA]" recorded_result=1.96
sequence_chain="GCUGUCACCGGUGUAUUACCCUAGUGGUCGACCGGUCUGAUGAGUCUUACAAAAGACGAAACAGC [UACAAA]" recorded_result=1.88
sequence_chain="GCUGUCACCGGUGUAUUACCCUAGUGGUCGACCGGUCUGAUGAGUCUAUGAUUAGACGAAACAGC [AUGAUU]" recorded_result=1.92
sequence_chain="GCUGUCACCGGUGUAUUACCCUAGUGGUCGACCGGUCUGAUGAGUCUAGAAUAAGACGAAACAGC [AGAAUA]" recorded_result=1.92
sequence_chain="GCUGUCACCGGUGUAUUACCCUAGUGGUCGACCGGUCUGAUGAGUCUCAAAAUAGACGAAACAGC [CAAAAU]" recorded_result=1.88
sequence_chain="GCUGUCACCGGUGUAUUACCCUAGUGGUCGACCGGUCUGAUGAGUCUUUGUAAAGACGAAACAGC [UUGUAA]" recorded_result=1.98
sequence_chain="GCUGUCACCGGUGUAUUACCCUAGUGGUCGACCGGUCUGAUGAGUCUUCCAUUAGACGAAACAGC [UCCAUU]" recorded_result=1.96
sequence_chain="GCUGUCACCGGUGUAUUACCCUAGUGGUCGACCGGUCUGAUGAGUCUGGGUUGAGACGAAACAGC [GGGUUG]" recorded_result=1.92
sequence_chain="GCUGUCACCGGUGUAUUACCCUAGUGGUCGACCGGUCUGAUGAGUCUUCUAUAAGACGAAACAGC [UCUAUA]" recorded_result=1.89
sequence_chain="GCUGUCACCGGUGUAUUACCCUAGUGGUCGACCGGUCUGAUGAGUCUGGCCUCAGACGAAACAGC [GGCCUC]" recorded_result=1.99
sequence_chain="GCUGUCACCGGUGUAUUACCCUAGUGGUCGACCGGUCUGAUGAGUCUAUUAAGAGACGAAACAGC [AUUAAG]" recorded_result=1.86
sequence_chain="GCUGUCACCGGUGUAUUACCCUAGUGGUCGACCGGUCUGAUGAGUCUUUCCGAAGACGAAACAGC [UUCCGA]" recorded_result=1.97
sequence_chain="GCUGUCACCGGUGUAUUACCCUAGUGGUCGACCGGUCUGAUGAGUCUGAGCACAGACGAAACAGC [GAGCAC]" recorded_result=1.89
sequence_chain="GCUGUCACCGGUGUAUUACCCUAGUGGUCGACCGGUCUGAUGAGUCUGCCAGCAGACGAAACAGC [GCCAGC]" recorded_result=1.97
sequence_chain="GCUGUCACCGGUGUAUUACCCUAGUGGUCGACCGGUCUGAUGAGUCUGGAGCUAGACGAAACAGC [GGAGCU]" recorded_result=1.96
sequence_chain="GCUGUCACCGGUGUAUUACCCUAGUGGUCGACCGGUCUGAUGAGUCUAGUCGUAGACGAAACAGC [AGUCGU]" recorded_result=1.9
sequence_chain="GCUGUCACCGGUGUAUUACCCUAGUGGUCGACCGGUCUGAUGAGUCUAGCCCCAGACGAAACAGC [AGCCCC]" recorded_result=1.96
sequence_chain="GCUGUCACCGGUGUAUUACCCUAGUGGUCGACCGGUCUGAUGAGUCUCCCGGUAGACGAAACAGC [CCCGGU]" recorded_result=2
sequence_chain="GCUGUCACCGGUGUAUUACCCUAGUGGUCGACCGGUCUGAUGAGUCUAAAUCCAGACGAAACAGC [AAAUCC]" recorded_result=1.94
sequence_chain="GCUGUCACCGGUGUAUUACCCUAGUGGUCGACCGGUCUGAUGAGUCUGAACAUAGACGAAACAGC [GAACAU]" recorded_result=1.91
sequence_chain="GCUGUCACCGGUGUAUUACCCUAGUGGUCGACCGGUCUGAUGAGUCUAACGGCAGACGAAACAGC [AACGGC]" recorded_result=1.95
sequence_chain="GCUGUCACCGGUGUAUUACCCUAGUGGUCGACCGGUCUGAUGAGUCUAACUAGAGACGAAACAGC [AACUAG]" recorded_result=1.82
sequence_chain="GCUGUCACCGGUGUAUUACCCUAGUGGUCGACCGGUCUGAUGAGUCUGGGAGGAGACGAAACAGC [GGGAGG]" recorded_result=1.76
sequence_chain="GCUGUCACCGGUGUAUUACCCUAGUGGUCGACCGGUCUGAUGAGUCUACACUGAGACGAAACAGC [ACACUG]" recorded_result=1.9
sequence_chain="GCUGUCACCGGUGUAUUACCCUAGUGGUCGACCGGUCUGAUGAGUCUGUUUACAGACGAAACAGC [GUUUAC]" recorded_result=1.96
sequence_chain="GCUGUCACCGGUGUAUUACCCUAGUGGUCGACCGGUCUGAUGAGUCUAGGCGAAGACGAAACAGC [AGGCGA]" recorded_result=1.92
sequence_chain="GCUGUCACCGGUGUAUUACCCUAGUGGUCGACCGGUCUGAUGAGUCUUUCUGGAGACGAAACAGC [UUCUGG]" recorded_result=1.93
sequence_chain="GCUGUCACCGGUGUAUUACCCUAGUGGUCGACCGGUCUGAUGAGUCUCGCUGCAGACGAAACAGC [CGCUGC]" recorded_result=1.98
sequence_chain="GCUGUCACCGGUGUAUUACCCUAGUGGUCGACCGGUCUGAUGAGUCUGUUAACAGACGAAACAGC [GUUAAC]" recorded_result=1.95
sequence_chain="GCUGUCACCGGUGUAUUACCCUAGUGGUCGACCGGUCUGAUGAGUCUGACCAAAGACGAAACAGC [GACCAA]" recorded_result=1.92
sequence_chain="GCUGUCACCGGUGUAUUACCCUAGUGGUCGACCGGUCUGAUGAGUCUGAUUGCAGACGAAACAGC [GAUUGC]" recorded_result=1.87
sequence_chain="GCUGUCACCGGUGUAUUACCCUAGUGGUCGACCGGUCUGAUGAGUCUUAAUACAGACGAAACAGC [UAAUAC]" recorded_result=1.93
sequence_chain="GCUGUCACCGGUGUAUUACCCUAGUGGUCGACCGGUCUGAUGAGUCUAGUCUGAGACGAAACAGC [AGUCUG]" recorded_result=1.9
sequence_chain="GCUGUCACCGGUGUAUUACCCUAGUGGUCGACCGGUCUGAUGAGUCUUUGCCGAGACGAAACAGC [UUGCCG]" recorded_result=1.98
sequence_chain="GCUGUCACCGGUGUAUUACCCUAGUGGUCGACCGGUCUGAUGAGUCUCAGACAAGACGAAACAGC [CAGACA]" recorded_result=1.96
sequence_chain="GCUGUCACCGGUGUAUUACCCUAGUGGUCGACCGGUCUGAUGAGUCUACCUCAAGACGAAACAGC [ACCUCA]" recorded_result=1.9
sequence_chain="GCUGUCACCGGUGUAUUACCCUAGUGGUCGACCGGUCUGAUGAGUCUCCCAUUAGACGAAACAGC [CCCAUU]" recorded_result=2
sequence_chain="GCUGUCACCGGUGUAUUACCCUAGUGGUCGACCGGUCUGAUGAGUCUAAGGAAAGACGAAACAGC [AAGGAA]" recorded_result=1.87
sequence_chain="GCUGUCACCGGUGUAUUACCCUAGUGGUCGACCGGUCUGAUGAGUCUAUUAACAGACGAAACAGC [AUUAAC]" recorded_result=1.88
sequence_chain="GCUGUCACCGGUGUAUUACCCUAGUGGUCGACCGGUCUGAUGAGUCUCAAGAUAGACGAAACAGC [CAAGAU]" recorded_result=1.94
sequence_chain="GCUGUCACCGGUGUAUUACCCUAGUGGUCGACCGGUCUGAUGAGUCUGACGUUAGACGAAACAGC [GACGUU]" recorded_result=1.9
sequence_chain="GCUGUCACCGGUGUAUUACCCUAGUGGUCGACCGGUCUGAUGAGUCUUAGGAAAGACGAAACAGC [UAGGAA]" recorded_result=1.88
sequence_chain="GCUGUCACCGGUGUAUUACCCUAGUGGUCGACCGGUCUGAUGAGUCUUUUCGUAGACGAAACAGC [UUUCGU]" recorded_result=1.96
sequence_chain="GCUGUCACCGGUGUAUUACCCUAGUGGUCGACCGGUCUGAUGAGUCUCAUCUAAGACGAAACAGC [CAUCUA]" recorded_result=2.01
sequence_chain="GCUGUCACCGGUGUAUUACCCUAGUGGUCGACCGGUCUGAUGAGUCUUCGACUAGACGAAACAGC [UCGACU]" recorded_result=1.93
sequence_chain="GCUGUCACCGGUGUAUUACCCUAGUGGUCGACCGGUCUGAUGAGUCUCGUCAUAGACGAAACAGC [CGUCAU]" recorded_result=1.93
sequence_chain="GCUGUCACCGGUGUAUUACCCUAGUGGUCGACCGGUCUGAUGAGUCUUUCGAUAGACGAAACAGC [UUCGAU]" recorded_result=1.88
sequence_chain="GCUGUCACCGGUGUAUUACCCUAGUGGUCGACCGGUCUGAUGAGUCUACGAGUAGACGAAACAGC [ACGAGU]" recorded_result=1.76
sequence_chain="GCUGUCACCGGUGUAUUACCCUAGUGGUCGACCGGUCUGAUGAGUCUGACGGUAGACGAAACAGC [GACGGU]" recorded_result=1.95
sequence_chain="GCUGUCACCGGUGUAUUACCCUAGUGGUCGACCGGUCUGAUGAGUCUUUGUGUAGACGAAACAGC [UUGUGU]" recorded_result=1.97
sequence_chain="GCUGUCACCGGUGUAUUACCCUAGUGGUCGACCGGUCUGAUGAGUCUUACUACAGACGAAACAGC [UACUAC]" recorded_result=1.95
